The reader will find reported activity change, negative = inhibition values listed item by item below.
assay: AP1 Signaling Pathway (AID 357); settings: ME-180 (cervical carcinoma) AP-1-bla reporter, EGF-induced, beta-lactamase ratio, 5 h; at 7.69 µM (top of the series) unless noted;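 also: ME-180 reporter cells stimulated with EGF at its EC50 level; % is scaled to controls: 0 for no effect and ±100 for the full control effect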
Results filed as inconclusive are left out. The source made the active and inactive calls. Calls follow the shape of the dose curve; as a rule, active = well fitted curve in either direction with a large enough effect (not every such curve was filed as active); inconclusive = small, poorly fitted or top-dose-only effect, or another doubt; inactive = flat fitted curve, though single readings scatter.
Observed Property: activity change, negative = inhibition

[[record]]
compound_smiles = "CN1CCN(c2ncnc3ccc(-c4ccccc4C#N)cc23)CC1"
recorded_value = "15.1% (inactive)"

[[record]]
compound_smiles = "O=C(Nc1cccc(F)c1)N1CCC2(CC1)CCN(C(=O)c1cnccn1)CC2"
recorded_value = "-10.4% (inactive)"

[[record]]
compound_smiles = "Cn1c(=O)c(-c2cc(F)cc(F)c2)nc2cnc(Oc3ccccc3)nc21"
recorded_value = "-7.91% (inactive)"

[[record]]
compound_smiles = "O=C(c1cc(C(F)(F)F)cc(C(F)(F)F)c1)N1CCC2(CC1)CCN(c1ccccn1)CC2"
recorded_value = "-6.99% (inactive)"

[[record]]
compound_smiles = "Cc1nc2cncnc2n(Cc2ccccc2)c1=O"
recorded_value = "-13.3% (inactive)"

[[record]]
compound_smiles = "CN(C)C(=O)c1ccc(-c2cc(NCc3cccnc3)ncn2)cc1"
recorded_value = "11.8% (inactive)"

[[record]]
compound_smiles = "CN(C)C(=O)c1ccc(-c2cncnc2N2CCNCC2)cc1"
recorded_value = "-5.59% (inactive)"

[[record]]
compound_smiles = "Cn1c(=O)c(-c2ccc(Cl)cc2)nc2cnc(Nc3ccccc3)nc21"
recorded_value = "-22.9% (inactive)"

[[record]]
compound_smiles = "COc1ccccc1CN1CC[C@@]2(CCCN(S(C)(=O)=O)C2)C1"
recorded_value = "1.48% (inactive)"

[[record]]
compound_smiles = "CCNc1ncc2ncc(=O)n(CCOC)c2n1"
recorded_value = "-22.6% (inactive)"

[[record]]
compound_smiles = "CCCC(=O)NCCc1c2n(c3ccc(OC)cc13)Cc1ccccc1-2"
recorded_value = "-34.8% [at 38 µM] (inactive)"


====

test: J3T Cancer Cell Toxicity qHTS against the NCATS CANVASS Library (AID 1347371); details: J3T dog glioma viability, ATP luminescence, 72 h; series mostly up to 46.1 µM
Results filed as inconclusive are left out. Active and inactive are the calls of the source. The call rests on the fitted dose curve; in most records, active means well fitted cell-killing curve with a large enough effect; inconclusive means small, poorly fitted or top-dose-only effect; inactive means flat fitted curve, though single readings scatter.
Outcomes: active, inactive

[[record]]
compound = "C/C=C1/C2=CCCN3C(=O)O[C@H]([C@H]1O)[C@H]23"
assigned_label = "inactive"

[[record]]
compound = "O=C1CCC(=O)N(O)CCCCCNC(=O)CCC(=O)N(O)CCCCCNC(=O)CCC(=O)N(O)CCCCCN1"
assigned_label = "inactive"

[[record]]
compound = "CCC(=O)N[C@@H](C[C@H](C)C(Cl)(Cl)Cl)C(=O)N1C(=O)C=C(OC)[C@@H]1CC(C)C"
assigned_label = "inactive"

[[record]]
compound = "O=C(OC[C@H]1O[C@@H](OC(=O)c2cc(O)c(O)c(O)c2)[C@H](OC(=O)c2cc(O)c(O)c(O)c2)[C@@H](OC(=O)c2cc(O)c(O)c(O)c2)[C@@H]1OC(=O)c1cc(O)c(O)c(O)c1)c1cc(O)c(O)c(O)c1"
assigned_label = "inactive"

[[record]]
compound = "CN1CC[C@@]23c4ccccc4N[C@@H]1[C@@]21CCN(C)[C@@H]3Nc2ccccc21"
assigned_label = "inactive"

[[record]]
compound = "C=C(Cl)[C@](Cl)(CBr)CC[C@@H](Br)C(C)(C)Cl"
assigned_label = "active"

[[record]]
compound = "C[C@@]1(CCC(=O)Nc2c(O)ccc(C(=O)O)c2O)C(=O)C=C[C@]23C[C@H]4C[C@H](O[C@@]4(C)C2)C31 (stereo partly drawn)"
assigned_label = "inactive"

[[record]]
compound = "C=C1CCC2C(C)(C(=O)O)CCC(CC/C(C)=C/C(=O)NC(CCC(N)=O)C(=O)O)[C@@]2(C)C1 (stereo partly drawn)"
assigned_label = "inactive"

[[record]]
compound = "COC(=O)[C@@]1(C)CCC[C@]2(C)c3cc(OC)ccc3CC[C@@H]12"
assigned_label = "inactive"

[[record]]
compound = "COc1ccc([C@@H]2c3cc4c(cc3C(=O)[C@H](C)C2C)OCO4)cc1OC (stereo partly drawn)"
assigned_label = "inactive"

[[record]]
compound = "O=C1CC(c2ccc(O)cc2)Oc2cc(O)ccc21 (stereo not drawn)"
assigned_label = "inactive"

[[record]]
compound = "C/C(=C\\[C@@H](C)CC/C=C/CC/C=C/C(=O)O)[C@H](O)[C@H](C)C(=O)CCCC1CC(=O)NC(=O)C1"
assigned_label = "inactive"

[[record]]
compound = "CCC(=O)CCCCC[C@@H]1NC(=O)[C@H]2CCCCN2C(=O)[C@H](C(C)C)NC(=O)[C@H](Cc2cn(OC)c3ccccc23)NC1=O"
assigned_label = "active"

[[record]]
compound = "C=C1CC[C@@H](Br)C(C)(C)[C@]12CC=C(C)C(=O)C2"
assigned_label = "inactive"

[[record]]
compound = "CC(C)=CCC[C@]12c3cc4c(cc3CC[C@@]1(C)[C@H](C)CC[C@@H]2O)[nH]c1ccccc14"
assigned_label = "inactive"

[[record]]
compound = "C[C@@]12CCC[C@@](C)(C(=O)OP(=O)(O)OC[C@H]3O[C@@H](n4cnc5c(N)ncnc54)[C@H](O)[C@@H]3O)[C@H]1C[C@@H](O)[C@@]13C[C@@H](CC[C@@H]21)[C@](C)(O)C3"
assigned_label = "active"

[[record]]
compound = "C[C@H](CCC(O)C(C)(O)CO)[C@@]1(O)CC[C@@]2(C)C3=C(CC[C@@]21C)[C@@]1(C)CCC(OC(=O)CCC(=O)O)C(C)(C)[C@@H]1CC3 (stereo partly drawn)"
assigned_label = "inactive"

[[record]]
compound = "CC[C@@H]1[C@H](C)[C@H](c2cc(OC)c(OC)cc2OC)[C@@H](C)[C@H](c2cc(OC)c(OC)cc2OC)[C@]12C=C(OC)C(=O)C=C2OC"
assigned_label = "inactive"

[[record]]
compound = "C=C1C[C@H]2O[C@@H]3[C@@H]4[C@H](CC[C@@](C)(O)[C@@H]42)[C@H](C)COC3(C)[C@@H](OC(=O)CCCCCCC)C[C@H]1O (stereo partly drawn)"
assigned_label = "inactive"

[[record]]
compound = "C/C1=C/[C@@H](C)[C@H](O)[C@@H](O)/C=C/CC/C=C/C(=O)O[C@@H]1[C@H](C)C(=O)CCCC1CC(=O)NC(=O)C1"
assigned_label = "inactive"

[[record]]
compound = "C/C(=C\\[C@@H](C)CC/C=C/CC/C=C/C(=O)O)[C@@H](O)[C@H](C)C(=O)CCCC1CC(=O)NC(=O)C1"
assigned_label = "inactive"

[[record]]
compound = "C[C@@]12CCC[C@@](C)(C(=O)O)[C@H]1C[C@@H](O)[C@@]13C[C@@H](CC[C@@H]21)[C@](C)(O)C3"
assigned_label = "inactive"

[[record]]
compound = "C/C(=C\\CC[C@@H](C)[C@H]1CC[C@]2(C)C3=CCC4C(C)(C)[C@@H](O)C[C@@H](O)[C@]4(C)C3[C@H](O)C[C@@]12C)CO (stereo partly drawn)"
assigned_label = "inactive"

[[record]]
compound = "COC12OC1(C13OC1(OC)C(=O)c1cc4cc(C)oc(=O)c4c(O)c1C3O)C(O)c1c(cc3cc(C)oc(=O)c3c1O)C2=O (stereo not drawn)"
assigned_label = "inactive"

[[record]]
compound = "C=C[C@@]1(C)CC[C@@H]([C@H](C)C(=O)/C=C/C(C)(C)O)O1"
assigned_label = "active"

[[record]]
compound = "C=C[C@@](C)(O)CC[C@@H]1[C@@]2(C)CCCC(C)(C)[C@@H]2CC[C@@]1(C)O"
assigned_label = "inactive"

[[record]]
compound = "CC(C)[C@@H]1CC(=O)c2coc3c2[C@H]1C[C@@H](C)C3=O"
assigned_label = "inactive"

[[record]]
compound = "COC(=O)C1=C[C@]23C[C@@H](C)CC[C@@H]2[C@@]2(C)CC[C@@H](C(C)C)[C@@](O)(O3)[C@@H]12"
assigned_label = "inactive"


====

target: Dual specificity protein kinase CLK4 (Homo sapiens); test: qHTS Assay for Inhibitors of CDC-like Kinase 4 (ADP-Glo Assay) (AID 1771); details: recombinant CLK4, ADP-Glo luminescence; series mostly up to 80 µM; also: nearly all actives have a fitted effect of over 70% in size
Inconclusive results are not listed. Activity calls are given as the source filed them. Calls follow the shape of the dose curve; as a rule, active = well fitted inhibition curve with a large enough effect; inconclusive = small, poorly fitted or top-dose-only effect; inactive = flat fitted curve, though single readings scatter.
Outcomes: label 1 = active, label 0 = inactive

[[record]]
compound_smiles = "COCCNc1ncnc2ccc(-c3cccc(OC)c3)cc12"
target_or_system = "Dual specificity protein kinase CLK4 (Homo sapiens)"
assigned_label = "label 1"

[[record]]
compound_smiles = "CN(Cc1ccco1)c1ncncc1-c1cccc(C#N)c1"
target_or_system = "Dual specificity protein kinase CLK4 (Homo sapiens)"
assigned_label = "label 0"

[[record]]
compound_smiles = "Cn1c(=O)c(-c2cccs2)nc2cnc(OCc3ccccc3)nc21"
target_or_system = "Dual specificity protein kinase CLK4 (Homo sapiens)"
assigned_label = "label 0"

[[record]]
compound_smiles = "COc1ccc(-n2c(=O)c(-c3cccs3)nc3cnc(N(C)C)nc32)cc1"
target_or_system = "Dual specificity protein kinase CLK4 (Homo sapiens)"
assigned_label = "label 0"

[[record]]
compound_smiles = "COc1ccc(CNc2ncnc3ccc(-c4cccc(NS(C)(=O)=O)c4)cc23)c(OC)c1"
target_or_system = "Dual specificity protein kinase CLK4 (Homo sapiens)"
assigned_label = "label 1"

[[record]]
compound_smiles = "COc1ccccc1CNc1nc(-c2c(C)noc2C)nc2ccccc12"
target_or_system = "Dual specificity protein kinase CLK4 (Homo sapiens)"
assigned_label = "label 0"

[[record]]
compound_smiles = "COc1ccc(Oc2ncc3nc(-c4cn(C)c5ccccc45)c(=O)n(C4CC4)c3n2)cc1"
target_or_system = "Dual specificity protein kinase CLK4 (Homo sapiens)"
assigned_label = "label 0"

[[record]]
compound_smiles = "O=c1cnc2cnc(Nc3ccccc3)nc2n1Cc1cccs1"
target_or_system = "Dual specificity protein kinase CLK4 (Homo sapiens)"
assigned_label = "label 1"

[[record]]
compound_smiles = "Cn1cc(-c2nc3cncnc3n(Cc3ccc(F)cc3)c2=O)c2ccccc21"
target_or_system = "Dual specificity protein kinase CLK4 (Homo sapiens)"
assigned_label = "label 0"

[[record]]
compound_smiles = "Cc1noc(C)c1-c1cc(NCc2cccs2)ncn1"
target_or_system = "Dual specificity protein kinase CLK4 (Homo sapiens)"
assigned_label = "label 1"

[[record]]
compound_smiles = "CC(=O)NCCNc1ncnc2ccc(-c3ccoc3)cc12"
target_or_system = "Dual specificity protein kinase CLK4 (Homo sapiens)"
assigned_label = "label 1"

